- TARGET UNDER TEST: Activated CDC42 kinase 1 (Homo sapiens, UniProt Q07912)
- Sequence (Q07912 whole entry): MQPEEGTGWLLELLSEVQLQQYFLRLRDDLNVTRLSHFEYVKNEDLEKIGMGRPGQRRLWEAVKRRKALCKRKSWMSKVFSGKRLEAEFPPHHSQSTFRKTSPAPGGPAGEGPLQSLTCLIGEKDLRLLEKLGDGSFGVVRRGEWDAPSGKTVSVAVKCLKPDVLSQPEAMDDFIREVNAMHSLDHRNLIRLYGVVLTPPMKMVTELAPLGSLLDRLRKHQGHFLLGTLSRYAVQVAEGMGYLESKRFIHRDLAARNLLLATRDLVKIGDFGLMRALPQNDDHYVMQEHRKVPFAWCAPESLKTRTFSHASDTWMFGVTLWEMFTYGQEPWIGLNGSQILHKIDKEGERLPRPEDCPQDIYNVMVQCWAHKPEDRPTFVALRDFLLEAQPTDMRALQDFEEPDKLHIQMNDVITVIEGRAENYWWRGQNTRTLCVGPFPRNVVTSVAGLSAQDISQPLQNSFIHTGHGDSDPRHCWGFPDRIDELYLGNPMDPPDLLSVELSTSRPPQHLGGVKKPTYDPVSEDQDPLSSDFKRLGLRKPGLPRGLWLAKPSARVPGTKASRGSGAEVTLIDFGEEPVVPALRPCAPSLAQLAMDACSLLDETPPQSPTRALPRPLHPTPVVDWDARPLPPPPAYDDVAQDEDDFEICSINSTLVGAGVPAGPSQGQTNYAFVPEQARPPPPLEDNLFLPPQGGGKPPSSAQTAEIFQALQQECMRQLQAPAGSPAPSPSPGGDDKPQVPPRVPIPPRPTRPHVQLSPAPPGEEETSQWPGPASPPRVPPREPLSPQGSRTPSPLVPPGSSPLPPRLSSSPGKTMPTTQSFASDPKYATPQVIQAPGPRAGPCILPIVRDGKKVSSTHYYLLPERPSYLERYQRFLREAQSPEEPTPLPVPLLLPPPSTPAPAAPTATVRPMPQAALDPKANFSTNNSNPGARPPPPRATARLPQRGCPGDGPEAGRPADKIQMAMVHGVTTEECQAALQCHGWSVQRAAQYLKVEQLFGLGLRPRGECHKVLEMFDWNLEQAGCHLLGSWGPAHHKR
METRIC NAME: IC50 (nM)
# unit: nM | format: bare number

Returns the measured IC50 for the input compound. Input: Nc1nccn2c(C3CCC3)nc(-c3ccc(C(O)c4ccccc4)cc3)c12 (configuration not stated) 280

====

- EXPERIMENTAL PROTOCOL: Half life in mouse at 20 mg/kg, po
- Format: ADME, organism-based
- Parameters: dose 20 mg/kg, route oral
- SETTINGS: in vivo
METRIC NAME: half-life (h)

Completed entries (count: 3):
MOLECULE | half-life (h)
COc1cc(Oc2ccccc2)ccc1-c1nc([C@H]2C[C@@](C)(O)C2)n2ccnc(N)c12 | 3.8
Nc1nccn2c(C3CCC3)nc(-c3ccc(Oc4ccccc4)cc3)c12 | 5.5
C[C@]1(O)C[C@@H](c2nc(-c3ccc(Oc4ccccc4)cc3)c3c(N)nccn32)C1 | 4.9

a = C[C@]1(O)C[C@@H](c2nc(-c3ccc(C(F)(F)c4ccccc4)cc3)c3c(N)nccn32)C1
b = CC(O)(c1ccccc1)c1ccc(-c2nc([C@H]3C[C@@](C)(O)C3)n3ccnc(N)c23)cc1 (mixture of isomers)
Looking at a and b , which one comes out lower in half-life terms? Please indicate the selected item by its label. b

====

- EXPERIMENTAL PROTOCOL: Cmax in mouse at 20 mg/kg, po
- Type: ADME, organism-based
- Set-up: dose 20 mg/kg, route oral
- SETTINGS: in vivo
METRIC NAME: Cmax (µM)

Completed entries (count: 2):
COMPOUND | Cmax, µM
C[C@]1(O)C[C@@H](c2nc(-c3ccc(C(F)(F)c4ccccc4)cc3)c3c(N)nccn32)C1 | 5
COc1cc(Oc2ccccc2)ccc1-c1nc([C@H]2C[C@@](C)(O)C2)n2ccnc(N)c12 | 5.9

1 = CC(O)(c1ccccc1)c1ccc(-c2nc([C@H]3C[C@@](C)(O)C3)n3ccnc(N)c23)cc1 (mixture of isomers)
2 = Nc1nccn2c(C3CCC3)nc(-c3ccc(Oc4ccccc4)cc3)c12
3 = C[C@]1(O)C[C@@H](c2nc(-c3ccc(Oc4ccccc4)cc3)c3c(N)nccn32)C1
Arrange these compounds by their Cmax, starting with the largest number. Please list the labels in the order you were asked to rank them. 3, 1, 2
(3: 11.2 µM, 1: 4.6 µM, 2: 0.9 µM)

====

- EXPERIMENTAL PROTOCOL: Volume of distribution at steady state in mouse at 2 mg/kg, iv
- Assay type: ADME, organism-based
- Parameters: dose 2 mg/kg, route intravenous
- SETTINGS: in vivo, read-out: Vdss
METRIC NAME: Vd (L/kg)

Completed entries (count: 3):
COMPOUND | Vd (L/kg)
COc1cc(Oc2ccccc2)ccc1-c1nc([C@H]2C[C@@](C)(O)C2)n2ccnc(N)c12 | 1.8
C[C@]1(O)C[C@@H](c2nc(-c3ccc(C(F)(F)c4ccccc4)cc3)c3c(N)nccn32)C1 | 1.7
CC(O)(c1ccccc1)c1ccc(-c2nc([C@H]3C[C@@](C)(O)C3)n3ccnc(N)c23)cc1 (mixture of isomers) | 3.3

I = Nc1nccn2c(C3CCC3)nc(-c3ccc(Oc4ccccc4)cc3)c12
II = C[C@]1(O)C[C@@H](c2nc(-c3ccc(Oc4ccccc4)cc3)c3c(N)nccn32)C1
Two entries are listed, I and II . Which one carries the higher Vd? Please indicate the selected item by its label. I
(I: 9 L/kg, II: 1.7 L/kg)

====

- TARGET UNDER TEST: Cytochrome P450 3A4 (Homo sapiens, UniProt P08684)
- Sequence (P08684 whole entry): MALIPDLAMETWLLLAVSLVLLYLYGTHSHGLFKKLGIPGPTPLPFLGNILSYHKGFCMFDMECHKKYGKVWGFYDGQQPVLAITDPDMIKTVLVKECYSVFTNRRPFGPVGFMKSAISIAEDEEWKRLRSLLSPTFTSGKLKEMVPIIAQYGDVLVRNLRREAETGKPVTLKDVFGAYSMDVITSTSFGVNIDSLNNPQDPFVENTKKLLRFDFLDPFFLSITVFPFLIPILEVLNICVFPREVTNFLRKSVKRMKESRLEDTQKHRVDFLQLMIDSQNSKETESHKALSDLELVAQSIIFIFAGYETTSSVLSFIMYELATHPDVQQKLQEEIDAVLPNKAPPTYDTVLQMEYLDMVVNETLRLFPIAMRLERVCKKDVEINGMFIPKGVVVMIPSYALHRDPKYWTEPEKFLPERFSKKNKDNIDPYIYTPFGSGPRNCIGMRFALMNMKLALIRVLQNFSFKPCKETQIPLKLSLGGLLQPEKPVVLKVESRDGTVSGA
pIC50: −log10 of the molar value.
METRIC NAME: pIC50

Returns the measured pIC50 for the input molecule. Input: `COc1cc(Oc2ccccc2)ccc1-c1nc([C@H]2C[C@@](C)(O)C2)n2ccnc(N)c12` < 4.70

====

- EXPERIMENTAL PROTOCOL: Permeability of the compound by PAMPA at pH 5
- Format: ADME
- SETTINGS: read-out: permeability
METRIC NAME: Papp (×10⁻⁶ cm/s)
# unit: ×10⁻⁶ cm/s | format: bare number

Returns the measured Papp for the input molecule. Input: `COc1cc(Oc2ccccc2)ccc1-c1nc([C@H]2C[C@@](C)(O)C2)n2ccnc(N)c12` 280

====

- EXPERIMENTAL PROTOCOL: Clearance in mouse at 2 mg/kg, iv
- Assay type: ADME, organism-based
- Parameters: dose 2 mg/kg, route intravenous
- SETTINGS: in vivo
METRIC NAME: clearance (mL/min/kg)

COMPOUND | QUANTITY UNIT | clearance
CC(O)(c1ccccc1)c1ccc(-c2nc([C@H]3C[C@@](C)(O)C3)n3ccnc(N)c23)cc1 (mixture of isomers) | mL/min/kg | 89
Nc1nccn2c(C3CCC3)nc(-c3ccc(Oc4ccccc4)cc3)c12 | mL/min/kg | 135
C[C@]1(O)C[C@@H](c2nc(-c3ccc(C(F)(F)c4ccccc4)cc3)c3c(N)nccn32)C1 | mL/min/kg | 63

P = C[C@]1(O)C[C@@H](c2nc(-c3ccc(Oc4ccccc4)cc3)c3c(N)nccn32)C1
Q = COc1cc(Oc2ccccc2)ccc1-c1nc([C@H]2C[C@@](C)(O)C2)n2ccnc(N)c12
Two entries are listed, P and Q . Which one carries the higher clearance? Please indicate the selected item by its label. P

====

- EXPERIMENTAL PROTOCOL: Oral bioavailability in mouse at 20 mg/kg
- Type: ADME, organism-based
- SETTINGS: in vivo
METRIC NAME: bioavailability (%)

Completed entries (count: 2):
COMPOUND | METRIC NAME | QUANTITY UNIT | OBSERVED MEASUREMENT
COc1cc(Oc2ccccc2)ccc1-c1nc([C@H]2C[C@@](C)(O)C2)n2ccnc(N)c12 | bioavailability | % | 98
C[C@]1(O)C[C@@H](c2nc(-c3ccc(Oc4ccccc4)cc3)c3c(N)nccn32)C1 | bioavailability | % | 87

I = CC(O)(c1ccccc1)c1ccc(-c2nc([C@H]3C[C@@](C)(O)C3)n3ccnc(N)c23)cc1 (mixture of isomers)
II = Nc1nccn2c(C3CCC3)nc(-c3ccc(Oc4ccccc4)cc3)c12
Looking at I and II , which one comes out lower in bioavailability terms? Please indicate the selected item by its label. II
(II: 50%, I: 105%)

====

- EXPERIMENTAL PROTOCOL: AUC in mouse at 20 mg/kg, po
- Format: ADME, organism-based
- Set-up: dose 20 mg/kg, route oral
- SETTINGS: plasma
METRIC NAME: AUC (ng·h/mL)

Completed entries (count: 2):
MOLECULE | AUC (ng·h/mL)
C[C@]1(O)C[C@@H](c2nc(-c3ccc(Oc4ccccc4)cc3)c3c(N)nccn32)C1 | 4680
COc1cc(Oc2ccccc2)ccc1-c1nc([C@H]2C[C@@](C)(O)C2)n2ccnc(N)c12 | 8480

A = C[C@]1(O)C[C@@H](c2nc(-c3ccc(C(F)(F)c4ccccc4)cc3)c3c(N)nccn32)C1
B = CC(O)(c1ccccc1)c1ccc(-c2nc([C@H]3C[C@@](C)(O)C3)n3ccnc(N)c23)cc1 (mixture of isomers)
C = Nc1nccn2c(C3CCC3)nc(-c3ccc(Oc4ccccc4)cc3)c12
Arrange these molecules by their AUC, starting with the largest number. Please list the labels in the order you were asked to rank them. A, B, C
(A: 8540 ng·h/mL, B: 3940 ng·h/mL, C: 1240 ng·h/mL)
